Assay: Prodrug activation in collagen/complete freund's adjuvant-induced rheumatoid arthritis DBA/1J mouse model assessed as Z)-2-((5-(1-cyclohexyl-1,6-dihydroimidazo[4,5-d]pyrrolo[2,3-b]pyridin-2-yl)furan-2-yl)(hydroxy)methyl)-3-(dimethylamino)-3-((4-(4,4,5,5-tetramethyl-1,3,2-dioxaborolan-2-yl)benzyl)oxy)acrylonitrile level in ankle joint at […], ip by LC-MS/MS analysis
Format: organism-based
Conditions: in vivo, 20 mg/kg, read-out: Ct
READOUT: concentration (nM)
Report only the number, with the unit nM understood.

## Input Given the entry CN(C)/C(OCc1ccc(B2OC(C)(C)C(C)(C)O2)cc1)=C(\C#N)C(O)c1ccc(-c2nc3cnc4[nH]ccc4c3n2C2CCCCC2)o1 (stereo unspecified) , report its measured concentration.
## Output 1130

====

Test: MRT (0 to infinity) in Sprague-Dawley rat at 20 mg/kg, ip measured for 0.8 to 24 hrs by LC-MS/MS analysis
Type: ADME, organism-based
Settings: in vivo, time 0.8-24 hrs
READOUT: MRT inf (h)
Report only the number, with the unit h understood.

## Input Given the entry CN(C)/C(OCc1ccc(B2OC(C)(C)C(C)(C)O2)cc1)=C(\C#N)C(O)c1ccc(-c2nc3cnc4[nH]ccc4c3n2C2CCCCC2)o1 (configuration not stated) , report its measured MRT inf.
## Output 2.38

Consider the record given below.
## Input Given the entry CN(C)C(=O)/C(C#N)=C/c1ccc(-c2nc3cnc4[nH]ccc4c3n2C2CCCCC2)o1 , report its measured MRT inf.
## Output 3.84

====

Experiment: Dissociation constant, pKa of the compound
Type: physicochemical
READOUT: pKa

## Input Given the entry CN(C)/C(OCc1ccc(B2OC(C)(C)C(C)(C)O2)cc1)=C(\C#N)C(O)c1ccc(-c2nc3cnc4[nH]ccc4c3n2C2CCCCC2)o1 (configuration not stated) , report its measured pKa.
## Output 10.7

Consider the record given below.
## Input Given the entry CN(C)C(=O)/C(C#N)=C/c1ccc(-c2nc3cnc4[nH]ccc4c3n2C2CCCCC2)o1 , report its measured pKa.
## Output 10.1

====

Assay: Stability in mouse plasma at 20 uM after 0.25 to 24 hrs by RP-UPLC-UV analysis
Assay type: ADME, cell-free
Settings: time 0.25-24 hrs, read-out: Stabilty
READOUT: remaining at 20 µM

## Input Given the entry CN(C)/C(OCc1ccc(B2OC(C)(C)C(C)(C)O2)cc1)=C(\C#N)C(O)c1ccc(-c2nc3cnc4[nH]ccc4c3n2C2CCCCC2)o1 (stereo unspecified) , report its measured remaining at 20 µM.
## Output > 95%

====

Assay: Drug level in ankle joint of collagen/complete freund's adjuvant-induced rheumatoid arthritis DBA/1J mouse model at 20 mg/kg, ip by LC-MS/MS analysis
Type: ADME, organism-based
Conditions: in vivo, read-out: Ct
READOUT: concentration (nM)
Report only the number, with the unit nM understood.

## Input Given the entry CN(C)/C(OCc1ccc(B2OC(C)(C)C(C)(C)O2)cc1)=C(\C#N)C(O)c1ccc(-c2nc3cnc4[nH]ccc4c3n2C2CCCCC2)o1 (configuration not stated) , report its measured concentration.
## Output 290

Consider the record given below.
## Input Given the entry CN(C)C(=O)/C(C#N)=C/c1ccc(-c2nc3cnc4[nH]ccc4c3n2C2CCCCC2)o1 , report its measured concentration.
## Output 1070
